Item-by-item account of GI50
- Tested on: SK-MEL-28
- test protocol: Growth inhibition of human SK-MEL-28 cells
- Format: functional
A number alone suffices; assume µM.

1. C=C1CCC[C@H]2[C@](C)(CC[C@]3(C)CC[C@@H]([C@@H](C)C(=O)O)OO3)[C@@H](C)CC[C@]12C	2.37

Now consider the entry below.
Assign GI50 to the following record: C=C1CCCC(C)(C)C1CC[C@]1(C)CC[C@H]([C@@H](C)C(=O)OC)OO1 (stereo partly drawn) 20.6

---

- Test system: P388
- test protocol: Growth inhibition of mouse P388 cells assessed as zone units at 50 ug/disk by disk diffusion agar colony formation assay
- Type: functional
measurement kind: Activity (Zone units)
A number alone suffices; assume Zone units.

Answered examples (3):
1. CC1=C(CC/C(C)=C/CC[C@@]2(C)CC[C@H]([C@H](C)C(=O)O)OO2)C(C)(C)CCC1	110
2. C=C1CCCC(C)(C)C1CCC1(C)CC[C@H]([C@@H](C)C(=O)O)OO1 (single isomer, unassigned) [NAPAPUIN B]	230
3. C=C1CCCC(C)(C)C1CC[C@]1(C)CC[C@H]([C@@H](C)C(=O)OC)OO1 (some centres undefined) [NUAPAPUIN B]	180

Assign Activity to the following record: `C=C1CCC[C@H]2[C@](C)(CCC(C)=O)[C@@H](C)CC[C@]12C` 0

---

- Tested on: HL-60(TB)
- test protocol: Growth inhibition of human HL-60(TB) cells
- Type: functional
measurement kind: GI50 (µM)
A number alone suffices; assume µM.

Answered examples (3):
1. C=C1CCCC(C)(C)C1CCC1(C)CC[C@H]([C@@H](C)C(=O)O)OO1 (single isomer, unassigned) [NAPAPUIN B]	1.63
2. CC1=C(CC/C(C)=C/CC[C@@]2(C)CC[C@@H]([C@H](C)C(=O)O)OO2)C(C)(C)CCC1 [EPIMUQUBILIN A]	47.8
3. C=C1CCC[C@H]2[C@](C)(CC[C@]3(C)CC[C@@H]([C@@H](C)C(=O)O)OO3)[C@@H](C)CC[C@]12C [SIGMOSCEPTRELLIN C]	0.14

Assign GI50 to the following record: C=C1CCCC(C)(C)C1CC[C@]1(C)CC[C@@H]([C@@H](C)C(=O)O)OO1 (stereo partly specified) [EPINUAPAPUIN B] 2.06

Assign GI50 to the following record: `CC(=O)CC/C=C(\C)CCC1=C(C)CCCC1(C)C` 2.88

Assign GI50 to the following record: C=C1CCCC(C)(C)C1CC[C@]1(C)CC[C@H]([C@@H](C)C(=O)OC)OO1 (stereo partly specified) [NUAPAPUIN B] 1.6

Assign GI50 to the following record: `CC1=C(CC/C(C)=C/CC[C@@]2(C)CC[C@H]([C@H](C)C(=O)O)OO2)C(C)(C)CCC1` 1.77

Assign GI50 to the following record: C=C1CCC[C@H]2[C@](C)(CC[C@]3(C)CC[C@H]([C@@H](C)C(=O)O)OO3)[C@@H](C)CC[C@]12C [SIGMOSCEPTRELLIN A] 0.14

---

- Test system: SF-539
- test protocol: Growth inhibition of human SF539 cells
- Type: functional
measurement kind: GI50 (µM)
A number alone suffices; assume µM.

1. C=C1CCC[C@H]2[C@](C)(CC[C@]3(C)CC[C@H]([C@@H](C)C(=O)O)OO3)[C@@H](C)CC[C@]12C	1.61
2. C=C1CCC[C@H]2[C@](C)(CC[C@]3(C)CC[C@@H]([C@@H](C)C(=O)O)OO3)[C@@H](C)CC[C@]12C	1.07
3. C=C1CCCC(C)(C)C1CC[C@]1(C)CC[C@H]([C@@H](C)C(=O)OC)OO1 (stereo not given in full)	6.25

Now consider the entry below.
Assign GI50 to the following record: C=C1CCCC(C)(C)C1CCC1(C)CC[C@H]([C@@H](C)C(=O)O)OO1 (single isomer, unassigned) 3.28

---

Item-by-item account of GI50
- System: Malme-3M
- test protocol: Growth inhibition of human MALME-3M cells
- Format: functional

Answered examples (5):
1) C=C1CCCC(C)(C)C1(O)CC/C(C)=C/CC[C@]1(C)CC[C@@H]([C@@H](C)C(=O)OC)OO1 (some centres undefined)	> 17.5 µM
2) C=C1CCCC(C)(C)C1CCC1(C)CC[C@H]([C@@H](C)C(=O)O)OO1 (single isomer, unassigned)	> 12.5 µM
3) C=C1CCCC(C)(C)C1CC[C@]1(C)CC[C@H]([C@@H](C)C(=O)OC)OO1 (some centres undefined)	21 µM
4) C=C1CCC[C@H]2[C@](C)(CC[C@]3(C)CC[C@H]([C@@H](C)C(=O)O)OO3)[C@@H](C)CC[C@]12C	1.2 µM
5) CC1=C(CC/C(C)=C/CC[C@@]2(C)CC[C@@H]([C@H](C)C(=O)O)OO2)C(C)(C)CCC1 [EPIMUQUBILIN A]	> 100 µM

Assign GI50 to the following record: C=C1CCCC(C)(C)C1CC[C@]1(C)CC[C@@H]([C@@H](C)C(=O)O)OO1 (some centres undefined) [EPINUAPAPUIN B] 3.96 µM

Assign GI50 to the following record: `CC(=O)CC/C=C(\C)CCC1=C(C)CCCC1(C)C` > 15 µM

Assign GI50 to the following record: `C=C1CCC[C@H]2[C@](C)(CCC(C)=O)[C@@H](C)CC[C@]12C` > 15 µM

Assign GI50 to the following record: `COC(=O)[C@H](C)[C@H]1CC[C@@](C)(CCC2=C(C)CCCC2(C)C)OO1` > 25 µM

---

Item-by-item account of GI50
- Test system: PC-3
- test protocol: Growth inhibition of human PC3 cells
- Type: functional
A number alone suffices; assume µM.

Answered examples (2):
1. C=C1CCC[C@H]2[C@](C)(CC[C@]3(C)CC[C@H]([C@@H](C)C(=O)O)OO3)[C@@H](C)CC[C@]12C [SIGMOSCEPTRELLIN A]	1.69
2. C=C1CCC[C@H]2[C@](C)(CC[C@]3(C)CC[C@@H]([C@@H](C)C(=O)O)OO3)[C@@H](C)CC[C@]12C [SIGMOSCEPTRELLIN C]	1.77

Assign GI50 to the following record: C=C1CCCC(C)(C)C1CC[C@]1(C)CC[C@H]([C@@H](C)C(=O)OC)OO1 (stereo partly specified) [NUAPAPUIN B] 3.63

---

- Tested on: MDA-MB-435
- test protocol: Growth inhibition of human MDA-MB-435 cells
- Format: functional
measurement kind: GI50

Answered examples (4):
1) C=C1CCCC(C)(C)C1(O)CC/C(C)=C/CC[C@]1(C)CC[C@@H]([C@@H](C)C(=O)OC)OO1 (some centres undefined) [MUQUBILIN B]	> 17.5 µM
2) CC1=C(CC/C(C)=C/CC[C@@]2(C)CC[C@@H]([C@H](C)C(=O)O)OO2)C(C)(C)CCC1 [EPIMUQUBILIN A]	> 100 µM
3) C=C1CCC[C@H]2[C@](C)(CCC(C)=O)[C@@H](C)CC[C@]12C	> 15 µM
4) C=C1CCCC(C)(C)C1CC[C@]1(C)CC[C@@H]([C@@H](C)C(=O)O)OO1 (some centres undefined) [EPINUAPAPUIN B]	> 10 µM

State, for MDA-MB-435, measured GI50 of the molecule listed here: `CC(=O)CC/C=C(\C)CCC1=C(C)CCCC1(C)C` > 15 µM

State, for MDA-MB-435, measured GI50 of the molecule listed here: C=C1CCC[C@H]2[C@](C)(CC[C@]3(C)CC[C@H]([C@@H](C)C(=O)O)OO3)[C@@H](C)CC[C@]12C [SIGMOSCEPTRELLIN A] 1.98 µM

State, for MDA-MB-435, measured GI50 of the molecule listed here: C=C1CCCC(C)(C)C1CC[C@]1(C)CC[C@H]([C@@H](C)C(=O)OC)OO1 (some centres undefined) [NUAPAPUIN B] 4.34 µM

State, for MDA-MB-435, measured GI50 of the molecule listed here: `CC1=C(CC/C(C)=C/CC[C@@]2(C)CC[C@H]([C@H](C)C(=O)O)OO2)C(C)(C)CCC1` > 5 µM

State, for MDA-MB-435, measured GI50 of the molecule listed here: C=C1CCC[C@H]2[C@](C)(CC[C@]3(C)CC[C@@H]([C@@H](C)C(=O)O)OO3)[C@@H](C)CC[C@]12C [SIGMOSCEPTRELLIN C] 2.06 µM

---

- Test system: COLO 205
- test protocol: Growth inhibition of human COLO205 cells
- Format: functional
Item-by-item account of GI50

1. COC(=O)[C@H](C)[C@H]1CC[C@@](C)(CCC2=C(C)CCCC2(C)C)OO1 [NUAPAPUIN A METHYL ESTER]	> 25 µM
2. C=C1CCC[C@H]2[C@](C)(CCC(C)=O)[C@@H](C)CC[C@]12C	> 15 µM
3. C=C1CCCC(C)(C)C1CC[C@]1(C)CC[C@@H]([C@@H](C)C(=O)O)OO1 (stereo partly specified) [EPINUAPAPUIN B]	> 10 µM
4. CC1=C(CC/C(C)=C/CC[C@@]2(C)CC[C@H]([C@H](C)C(=O)O)OO2)C(C)(C)CCC1	> 5 µM
5. CC(=O)CC/C=C(\C)CCC1=C(C)CCCC1(C)C	> 15 µM

Now consider the entry below.
Assign GI50 to the following record: C=C1CCCC(C)(C)C1(O)CC/C(C)=C/CC[C@]1(C)CC[C@@H]([C@@H](C)C(=O)OC)OO1 (stereo partly specified) [MUQUBILIN B] > 17.5 µM

Reference source: ChEMBL document CHEMBL1141727
